EXPERIMENTAL_DETAILS: Antioxidant activity assessed as AAPH radical scavenging activity by measuring trolox equivalents preincubated for 30 mins followed by AAPH addition and measured every 2 mins for 2 hrs by ORAC assay
Assay type: functional
RECORDED_ENDPOINT: Activity (equiv)
Field format: number, assumed equiv, no unit text.

COc1cc(/C=N/CCCN2C(=O)c3cccc4cccc(c34)C2=O)ccc1O :: 2.1
COc1cc(CNc2ccc(Nc3c4c(nc5ccccc35)CCCC4)cc2)ccc1O :: 6.4
COc1cc(CNCCCN2C(=O)c3cccc4cccc(c34)C2=O)ccc1O :: 3.9

Request: Could you share which Activity value was measured for "COc1cc(CNCCCN2C(=O)c3cccc4cccc(c34)C2=O)cc(OC)c1O" ?
Response: 2
